system: LOX IMVI; assay: NCI tumour cell line growth inhibition, 48 h
Activity calls are given as the source filed them. Cut-off read from the data, not from the text of the source: active = GI50 up to about 1.1 µM and inactive = higher.
testReadout: GI50

Consider the worked cases shown below.
[
  {
    "compound": "CN(C)CCCN1C(=S)N(CCCN(C)C)c2c3ccccc3nc3c([N+](=O)[O-])ccc1c23",
    "GI50": "4.42 µM (inactive)"
  },
  {
    "compound": "CC1CCC(C(C)(C)c2ccccc2)C(=O)C1 (centres undefined)",
    "GI50": "> 100 µM (inactive)"
  },
  {
    "compound": "O=C1OC2C(O)C(=O)OC2C1O (centres undefined)",
    "GI50": "> 100 µM (inactive)"
  },
  {
    "compound": "CCOC(=O)c1cn2c(n1)sc1cc(F)ccc12",
    "GI50": "80.7 µM (inactive)"
  },
  {
    "compound": "COc1cc2c[n+](C)c3c4ccccc4ccc3c2cc1OC",
    "GI50": "12.9 µM (inactive)"
  }
]

So what does the record say about GI50 for O/N=C(\CC(O)(C(F)(F)F)C(F)(F)F)c1cccc(Cl)c1 ?
23 µM (inactive)

So what does the record say about GI50 for CC(=O)c1ccc2c(c1)C(=O)c1sc(C(C)=O)cc1C2=O ?
0.22 µM (active)

So what does the record say about GI50 for CC(=O)OC1CCC2(C)C(CCC3C2CCC2(C)C(c4ccc(=O)oc4)C(OC(C)=O)CC32O)C1 (centres undefined) ?
0.0176 µM (active)

So what does the record say about GI50 for O=C(/C=C/c1ccccc1)/C=C/c1ccccc1 ?
16.8 µM (inactive)

So what does the record say about GI50 for CC(=O)Nc1ccc(-c2nnc(SCC(=O)Nc3ccc(Cl)cc3)o2)cc1 ?
5.33 µM (inactive)

So what does the record say about GI50 for COC(=O)C1C(O)C(C)C(=O)C(C)/C=C\C=C(C)C(=O)Nc2c(C)c(OC(C)=O)c3c(c2O)C(=O)C(C)=C2OCOC(=C23)C(C)=CC(C)(O)C(O)C(C)C1O (centres undefined) ?
24.9 µM (inactive)

So what does the record say about GI50 for NC(=O)CCC(NC(=O)c1cccc2c(=O)c3ccccc3[nH]c12)C(=O)O (centres undefined) ?
> 100 µM (inactive)

So what does the record say about GI50 for C=CCOC(=O)C[C@H](NC(=O)[C@H](Cc1ccc(O)cc1)NCC(F)(F)F)C(=O)OCC=C ?
65.5 µM (inactive)

So what does the record say about GI50 for CN(CCc1ccccn1)C(=S)N/N=C/c1ccccn1 ?
0.07 µM (active)

###

Here, each record is paired with measured GI50 data.
system: OVCAR-3; experiment: NCI tumour cell line growth inhibition, 48 h
Active and inactive are the calls of the source. Rule as the data show it: active = GI50 up to about 1.1 µM and inactive = higher.

[
  {
    "compound": "NCC1OC(n2cnc3c(=O)[nH]c(N)nc32)C(O)C1O (stereo unspecified)",
    "testedSystem": "OVCAR-3",
    "GI50": "> 53.3 µM (inactive)"
  },
  {
    "compound": "CC1CC(=O)N(N(C)C)C(C#N)(C#N)C1(C#N)C#N (stereo unspecified)",
    "testedSystem": "OVCAR-3",
    "GI50": "20.5 µM (inactive)"
  },
  {
    "compound": "COC1OC(COS(=O)(=O)c2ccc(C)cc2)C(O)C(OS(=O)(=O)c2ccc(C)cc2)C1OS(=O)(=O)c1ccc(C)cc1 (stereo unspecified)",
    "testedSystem": "OVCAR-3",
    "GI50": "> 100 µM (inactive)"
  }
]

So what does the record say about GI50 for CN(C)Cc1cc(/N=N/c2ccccc2)cc(CN(C)C)c1O ?
27.4 µM (inactive)

So what does the record say about GI50 for ClCCCc1ccccc1C1=NCCc2ccccc21 ?
> 100 µM (inactive)

So what does the record say about GI50 for CCOC(=O)NC(=O)c1cn(CCOCCOC(=O)NCCCCCCNC(=O)OCCOCCn2cc(C(=O)NC(=O)OCC)c(=O)[nH]c2=O)c(=O)[nH]c1=O ?
> 100 µM (inactive)

So what does the record say about GI50 for S=P1(c2ccccc2)Nc2ccc(Cl)cc2N1 (stereo unspecified) ?
> 100 µM (inactive)

So what does the record say about GI50 for Cc1nn(C(=O)CC(=O)Nc2ccc(Cl)cc2)c(C)c1/N=N/c1ccccc1C(=O)O ?
> 100 µM (inactive)

###

Here, each record is paired with measured GI50 data.
test system: OVCAR-4; assay: NCI tumour cell line growth inhibition, 48 h
Calls of active or inactive are those of the source. No stated cut-off is given here; in the data, active = GI50 up to about 1.1 µM and inactive = higher.

[
  {
    "molecule": "C=C1C(C)C2C(Cc3ccccc3)NC(=O)C23OC(=O)/C=C\\CC(=O)CCC(C)C/C=C/C3C1O (stereo not given)",
    "GI50": "2.31 µM (inactive)"
  },
  {
    "molecule": "Cc1cccc(NC(=S)Nc2ccccc2Cl)n1",
    "GI50": "24.4 µM (inactive)"
  },
  {
    "molecule": "COc1cc(C(c2cccc3ccccc23)N2C(=O)CCC2C(=O)O)cc(OC)c1OC (stereo not given)",
    "GI50": "> 100 µM (inactive)"
  },
  {
    "molecule": "C=C1C(=O)O[C@H]2C1C[C@@H](OC(C)=O)/C(C)=C/CC[C@@]1(C)O[C@H]21 (stereo not given in full)",
    "GI50": "13 µM (inactive)"
  }
]

Below: the item to evaluate.
So what does the record say about GI50 for CC(=O)Oc1cc2c(c3ncccc13)OC(C)(C)C2 ?
12.1 µM (inactive)

###

test system: UACC-62; assay: NCI tumour cell line growth inhibition, 48 h
The source made the active and inactive calls. Cut-off read from the data, not from the text of the source: active = GI50 up to about 1.1 µM and inactive = higher.
Here, each record is paired with measured GI50 data.

Consider the worked cases shown below.
[
  {
    "compound": "Cc1c(C#N)c(N)n(C2OCC(O)C(O)C2O)c(=S)c1C#N (centres undefined)",
    "testedSystem": "UACC-62",
    "testReadout": "GI50",
    "result": "> 100 µM (inactive)"
  },
  {
    "compound": "O=C1C(=O)C(Br)(Br)C(Br)=C1Br",
    "testedSystem": "UACC-62",
    "testReadout": "GI50",
    "result": "18.5 µM (inactive)"
  },
  {
    "compound": "COc1ccc(-c2nc(-c3ccc(OC)cc3)n(-c3ccccc3)n2)cc1",
    "testedSystem": "UACC-62",
    "testReadout": "GI50",
    "result": "86.5 µM (inactive)"
  }
]

Test system UACC-62; read-out GI50; what value for O=C1/C(=C/c2ccc(O)cc2)CCC1CNc1ccccc1 (centres undefined) ?
13.1 µM (inactive)

Test system UACC-62; read-out GI50; what value for CC(=O)C(=[N+]=[N-])C(=O)NCC#N ?
> 10 µM (inactive)

Test system UACC-62; read-out GI50; what value for Cc1cccc2oc3c(c(=O)c12)CC(O)C(C)(C)O3 (centres undefined) ?
> 100 µM (inactive)

Test system UACC-62; read-out GI50; what value for CC(=O)Nc1ccc(-c2nnc(SCC(=O)Nc3ccc(Cl)cc3)o2)cc1 ?
4.89 µM (inactive)

###

tested on: HCT-116; assay: NCI tumour cell line growth inhibition, 48 h
Active and inactive are the calls of the source. No stated cut-off is given here; in the data, active = GI50 up to about 1.1 µM and inactive = higher.
Here, each record is paired with measured GI50 data.

Consider the worked cases shown below.
[
  {
    "compoundStructure": "Cc1nc([N+](=O)[O-])cn1CC(=N)N",
    "GI50": "> 100 µM (inactive)"
  },
  {
    "compoundStructure": "O=c1[nH]c2ccc(C(F)(F)F)cc2nc1C(F)(F)F",
    "GI50": "20.9 µM (inactive)"
  },
  {
    "compoundStructure": "Nc1cc(N2CCOCC2)nc(=O)n1-c1ccccc1",
    "GI50": "> 100 µM (inactive)"
  }
]

So what does the record say about GI50 for CCOc1ccc(/C(C=O)=C(\Cl)c2ccc(OC)c(OC)c2)cc1 ?
> 100 µM (inactive)

So what does the record say about GI50 for Nc1ncc(CN2CCOCC2)c(-c2ccccc2O)n1 ?
> 100 µM (inactive)

So what does the record say about GI50 for CSc1c(CC(=O)O)n(Cc2ccccc2)c2ccccc12 ?
> 100 µM (inactive)

###

test system: CAKI-1; assay: NCI tumour cell line growth inhibition, 48 h
The source made the active and inactive calls. No stated cut-off is given here; in the data, active = GI50 up to about 1.1 µM and inactive = higher.
Your answer must be one of the following: t for active, f for inactive

[
  {
    "molecule": "CC(C)(C)[Si](C)(C)OCC1OC(n2ccc(=O)[nH]c2=O)C(O[Si](C)(C)C(C)(C)C)[C@@]12O[C@H]2C(N)=O (stereo partly specified)",
    "testedSystem": "CAKI-1",
    "classAssignment": "f"
  },
  {
    "molecule": "COc1cc([C@@H]2c3cc4c(cc3[C@@H](NC(=O)NO)[C@H]3COC(=O)[C@H]23)OCO4)cc(OC)c1O",
    "testedSystem": "CAKI-1",
    "classAssignment": "f"
  },
  {
    "molecule": "Cc1nn(C(=O)CC(=O)Nc2ccc(Cl)cc2)c(C)c1/N=N/c1ccccc1C(=O)O",
    "testedSystem": "CAKI-1",
    "classAssignment": "f"
  }
]

I'd appreciate the recorded outcome for O=C1CCCCC/C1=C\c1ccc(Cl)cc1 from this test.
f

I'd appreciate the recorded outcome for C[Si](C)(C)OC1CC(=O)OC1n1cc(F)c(=O)[nH]c1=O (stereo unspecified) from this test.
f

I'd appreciate the recorded outcome for Cc1ccc(S(=O)(=O)N/N=C/c2oc(-c3ccncc3)c(-c3ccncc3)c2[N+](=O)[O-])cc1 from this test.
f

I'd appreciate the recorded outcome for COc1cc2c3c(c1OC)/C(=N/OS(=O)(=O)c1ccc(C)cc1)CC3N(S(=O)(=O)c1ccc(C)cc1)CC2 (stereo unspecified) from this test.
f

I'd appreciate the recorded outcome for O=c1c2nn3c(=O)n(-c4ccccc4)c(=O)c3nn2c(=O)n1-c1ccccc1 from this test.
f

I'd appreciate the recorded outcome for COc1ccc(C2=CN3CCC[C@H]3C=C2c2cc(O)c(OC)c(OC)c2)cc1OC from this test.
t

I'd appreciate the recorded outcome for CCNC(=O)C(O)C1(O)CCC2[C@@H]3CCC4=CC(=O)C=C[C@]4(C)C3[C@@H](O)C[C@@]21C (stereo partly specified) from this test.
f

I'd appreciate the recorded outcome for O=C(Nc1ccc(-c2cn3ccccc3n2)cc1)c1cc(Br)ccc1O from this test.
f

I'd appreciate the recorded outcome for C=C(CO)[C@H]1Oc2ccc(C(C)=O)cc2[C@@H]1O from this test.
f

I'd appreciate the recorded outcome for O=C1c2cc3c(cc2CC1Br)CCC3 (stereo unspecified) from this test.
f

I'd appreciate the recorded outcome for C1C[N+]23CCC[N+]2(C1)CCC3 (stereo unspecified) from this test.
f

I'd appreciate the recorded outcome for Cc1nn(C(=O)Cc2ccccc2)c2c1C(c1ccc(Cl)cc1)SC(=N)N2 (stereo unspecified) from this test.
f

I'd appreciate the recorded outcome for O=C1Sc2sc(=S)sc2SC1c1ccccc1 (stereo unspecified) from this test.
t

I'd appreciate the recorded outcome for Cc1c(C#N)c(N)n(C2OCC(O)C(O)C2O)c(=S)c1C#N (stereo unspecified) from this test.
f

I'd appreciate the recorded outcome for CN(C)c1ccc(NN=C2SC(=N\c3ccccc3)/C(=N/c3ccccc3)S2)cc1 from this test.
f

I'd appreciate the recorded outcome for O=C1/C(=C/c2ccc(O)cc2)CCC1CNc1ccccc1 (stereo unspecified) from this test.
f
